Ref: ChEMBL document CHEMBL5291721

Target: UniProt P41595
Sequence (P41595 whole entry): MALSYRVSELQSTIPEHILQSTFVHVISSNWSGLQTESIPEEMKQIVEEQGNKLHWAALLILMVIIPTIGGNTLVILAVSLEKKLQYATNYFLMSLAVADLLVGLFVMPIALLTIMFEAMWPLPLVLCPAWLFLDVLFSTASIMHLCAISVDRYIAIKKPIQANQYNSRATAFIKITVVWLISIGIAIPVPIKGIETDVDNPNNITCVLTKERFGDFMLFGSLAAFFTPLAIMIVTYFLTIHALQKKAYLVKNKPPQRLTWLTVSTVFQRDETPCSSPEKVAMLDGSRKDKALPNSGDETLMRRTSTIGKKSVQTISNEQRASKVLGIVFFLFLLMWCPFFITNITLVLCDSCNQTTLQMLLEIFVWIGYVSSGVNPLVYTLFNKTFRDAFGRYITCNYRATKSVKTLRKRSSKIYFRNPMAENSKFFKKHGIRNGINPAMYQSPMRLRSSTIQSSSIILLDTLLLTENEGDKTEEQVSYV
Format: functional, cell-based
MEASURED ATTRIBUTE: AC50

1. C#C[C@]1(O)CC[C@H]2[C@@H]3[C@H](C)CC4=C(CCC(=O)C4)[C@H]3CC[C@@]21C = > 30 µM
2. COc1ccccc1N1CCN(CCCNc2cc(=O)n(C)c(=O)n2C)CC1 = 20 µM
3. CO[C@@H]1[C@@H](O[C@@H]2O[C@H](C)[C@@H](O[C@H]3C[C@@](C)(O)[C@@H](OC(=O)CC(C)C)[C@H](C)O3)[C@H](N(C)C)[C@H]2O)[C@@H](CC=O)C[C@@H](C)[C@@H](O)/C=C/C=C/C[C@@H](C)OC(=O)C[C@H]1OC(C)=O = > 10 µM
4. COc1cc2nc(N(C)CCCNC(=O)C3CCCO3)nc(N)c2cc1OC (configuration not stated) = > 30 µM
5. COc1ccc(CC(C)(C)NC[C@H](O)c2cc(O)cc3c2OCC(=O)N3)cc1 = 6.65 µM
6. COc1ccc(CCN(C)CCCC(C#N)(c2cc(OC)c(OC)c(OC)c2)C(C)C)cc1OC (configuration not stated) = 0.86 µM
7. Cc1cc(O)c(C(=O)N[C@@H](C(=O)N[C@@H]2C(=O)N3C(C(=O)O)=C(CSc4nnnn4C)CS[C@H]23)c2ccc(O)cc2)cn1 [CEFPIRAMIDE] = > 30 µM

====

Reported AC50 values for a set of compounds
Target: Alpha-1A adrenergic receptor (Homo sapiens, UniProt P35348); further: assay procedure not described here
Sequence (P35348 whole entry): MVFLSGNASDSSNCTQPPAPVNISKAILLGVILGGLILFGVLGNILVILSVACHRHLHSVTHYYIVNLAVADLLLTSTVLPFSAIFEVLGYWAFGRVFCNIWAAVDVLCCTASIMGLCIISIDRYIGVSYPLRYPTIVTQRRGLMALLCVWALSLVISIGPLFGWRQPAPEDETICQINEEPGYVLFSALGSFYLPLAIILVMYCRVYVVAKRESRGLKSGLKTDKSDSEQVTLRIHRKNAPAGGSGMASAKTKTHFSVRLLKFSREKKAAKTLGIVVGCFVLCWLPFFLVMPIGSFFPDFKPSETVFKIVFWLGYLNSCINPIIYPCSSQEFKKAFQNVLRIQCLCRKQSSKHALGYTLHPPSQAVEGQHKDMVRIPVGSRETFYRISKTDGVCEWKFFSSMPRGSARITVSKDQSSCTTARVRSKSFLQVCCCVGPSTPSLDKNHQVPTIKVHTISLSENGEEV
Assay type: functional, cell-based
MEASURED ATTRIBUTE: AC50

1. COC1=C(OC)C(=O)C(C/C=C(\C)CC/C=C(\C)CC/C=C(\C)CC/C=C(\C)CC/C=C(\C)CC/C=C(\C)CC/C=C(\C)CC/C=C(\C)CC/C=C(\C)CCC=C(C)C)=C(C)C1=O = > 30 µM
2. C=CCN1C[C@H](C(=O)N(CCCN(C)C)C(=O)NCC)C[C@@H]2c3cccc4[nH]cc(c34)C[C@H]21 = 0.142 µM
3. C=CCc1ccccc1OCC(O)CNC(C)C (stereo not drawn) = > 0.3 µM
4. CC(=O)N[C@@H]1[C@@H](O)[C@H](O)[C@@H](CO)O[C@H]1O = > 30 µM
5. N[C@@H](C(=O)N[C@@H]1C(=O)N2C(C(=O)O)=C(Cl)CC[C@H]12)c1ccccc1 [LORACARBEF ANHYDROUS] = > 30 µM
6. Clc1ccc(C(OCCN2CCCCC2)c2ccccc2)cc1 (stereo not drawn) = > 30 µM
7. CC(=O)c1ccc2c(c1)N(CCCN(C)C)c1ccccc1S2 = > 30 µM
8. Cc1cc(OP(=O)(O)O)c2ccccc2c1OP(=O)(O)O [MENADIOL SODIUM DIPHOSPHATE] = > 30 µM
9. COCCCN1CCC(NC(=O)c2cc(Cl)c(N)c3c2OCC3)CC1 [PRUCALOPRIDE] = > 30 µM
10. CC(C)COC(=O)OCN1C(=O)CN(CCN2CC(=O)N(COC(=O)OCC(C)C)C(=O)C2)CC1=O = > 30 µM
11. O=c1[nH]c(=O)n(C2CCCO2)cc1F (stereo not drawn) = > 30 µM
12. CC(C)(C)NC[C@H](O)COc1ccccc1C1CCCC1 = > 30 µM
13. CCCCCCOc1nsnc1C1=CCCN(C)C1 = 13.2 µM
14. O=C(O)c1ccccc1C(=O)Nc1ccc(S(=O)(=O)Nc2nccs2)cc1 = > 30 µM
15. CCOC(=O)/C=C1\SC(N2CCCCC2)C(=O)N1C (stereo not drawn) = > 30 µM
16. Clc1cc(Cl)c(OCC#CI)cc1Cl = > 30 µM
17. O=[N+]([O-])c1cn2c(n1)OC[C@@H](OCc1ccc(OC(F)(F)F)cc1)C2 = > 10 µM
18. COc1ccc(C(=O)Nc2ccccc2CCC2CCCCN2C)cc1 (stereo not drawn) [ENCAINIDE] = > 30 µM
